- system: UniProt Q12809
- Sequence (Q12809 whole entry): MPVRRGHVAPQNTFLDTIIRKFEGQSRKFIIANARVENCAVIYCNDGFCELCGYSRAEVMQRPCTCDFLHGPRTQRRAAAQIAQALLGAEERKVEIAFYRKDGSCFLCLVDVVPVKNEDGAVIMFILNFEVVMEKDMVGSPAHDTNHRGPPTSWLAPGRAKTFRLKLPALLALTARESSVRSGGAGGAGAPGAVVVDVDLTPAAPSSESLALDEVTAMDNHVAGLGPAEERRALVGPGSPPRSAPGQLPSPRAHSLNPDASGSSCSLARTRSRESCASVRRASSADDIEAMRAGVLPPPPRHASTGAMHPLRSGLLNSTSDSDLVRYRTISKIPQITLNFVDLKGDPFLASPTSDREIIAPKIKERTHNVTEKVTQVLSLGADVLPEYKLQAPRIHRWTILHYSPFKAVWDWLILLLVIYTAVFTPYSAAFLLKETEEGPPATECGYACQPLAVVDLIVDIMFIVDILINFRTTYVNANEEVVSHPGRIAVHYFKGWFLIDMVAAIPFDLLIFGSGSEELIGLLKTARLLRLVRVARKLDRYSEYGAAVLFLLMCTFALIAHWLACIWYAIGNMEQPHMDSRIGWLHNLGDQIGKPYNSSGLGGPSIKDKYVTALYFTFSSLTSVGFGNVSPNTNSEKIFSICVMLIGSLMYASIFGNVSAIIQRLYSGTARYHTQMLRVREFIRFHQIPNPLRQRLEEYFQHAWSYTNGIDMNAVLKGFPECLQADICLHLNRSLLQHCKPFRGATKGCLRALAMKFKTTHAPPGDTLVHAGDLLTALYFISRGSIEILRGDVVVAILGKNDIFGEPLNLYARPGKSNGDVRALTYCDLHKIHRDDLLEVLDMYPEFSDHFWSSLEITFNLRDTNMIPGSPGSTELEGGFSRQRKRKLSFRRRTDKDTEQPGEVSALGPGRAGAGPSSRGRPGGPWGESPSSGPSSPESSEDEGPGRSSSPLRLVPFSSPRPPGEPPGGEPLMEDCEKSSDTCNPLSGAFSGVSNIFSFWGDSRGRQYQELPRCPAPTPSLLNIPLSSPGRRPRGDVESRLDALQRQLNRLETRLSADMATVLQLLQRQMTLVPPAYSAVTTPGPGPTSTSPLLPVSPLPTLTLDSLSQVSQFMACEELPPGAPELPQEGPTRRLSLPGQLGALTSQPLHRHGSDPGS
pIC50: −log10 of the molar value.
quantity.name: pIC50

The molecule listed as `C[C@@H]1CN(Cc2ccc(-c3cccnc3C(=O)N3CCC(Nc4ccc(F)cc4)CC3)cc2)C[C@H](C)N1` shows pIC50 equal to < 4.50

====

- system: Cytochrome P450 3A4 (Homo sapiens)
- measurement.notes: Inhibition of CYP3A4 using diethoxyfluorescein substrate
- Type: ADME
quantity.name: log10 of IC50 (log10 of the value in µM)
Values are log10 of IC50 in µM.

Worked examples, 5 compounds total:
COc1cccc(CCN(Cc2ccccc2-c2ccc(CN3C[C@@H](C)N[C@@H](C)C3)cc2)C(=O)NC2CCCCC2)c1	-0.70
C[C@@H]1CN(Cc2ccc(-c3ccccc3CN(C)C(=O)Cc3cccc(Cl)c3)cc2)C[C@H](C)N1	0.15
C[C@@H]1CN(Cc2ccc(-n3ccnc3C(=O)N3CCC(Nc4cccc(F)c4)CC3)cc2)C[C@H](C)N1	1.76
C[C@@H]1CN(Cc2ccc(-c3ccccc3C(=O)N3CCC(Nc4ccccc4)CC3)cc2)C[C@H](C)N1	1.08
C[C@@H]1CN(Cc2ccc(-c3ccccc3C(=O)N3CCC(C(=O)c4ccc(F)cc4)CC3)cc2)C[C@H](C)N1	0.68

List the reported log10 of IC50 of each compound below.
1. Cc1cc(CC(=O)N(C)Cc2ccccc2-c2ccc(CN3C[C@@H](C)N[C@@H](C)C3)cc2)on1
2. C[C@@H]1CN(Cc2ccc(-c3ccccc3C(=O)N3CCC(Cc4ccc(F)cc4)CC3)cc2)C[C@H](C)N1
3. C[C@@H]1CN(Cc2ccc(-c3ccccc3CN(C)C(=O)COc3ccc(F)cc3)cc2)C[C@H](C)N1

[reply]
1: 1.60; 2: -0.22; 3: 0.78

====

- system: Motilin receptor (Homo sapiens, UniProt O43193)
- Sequence (O43193 whole entry): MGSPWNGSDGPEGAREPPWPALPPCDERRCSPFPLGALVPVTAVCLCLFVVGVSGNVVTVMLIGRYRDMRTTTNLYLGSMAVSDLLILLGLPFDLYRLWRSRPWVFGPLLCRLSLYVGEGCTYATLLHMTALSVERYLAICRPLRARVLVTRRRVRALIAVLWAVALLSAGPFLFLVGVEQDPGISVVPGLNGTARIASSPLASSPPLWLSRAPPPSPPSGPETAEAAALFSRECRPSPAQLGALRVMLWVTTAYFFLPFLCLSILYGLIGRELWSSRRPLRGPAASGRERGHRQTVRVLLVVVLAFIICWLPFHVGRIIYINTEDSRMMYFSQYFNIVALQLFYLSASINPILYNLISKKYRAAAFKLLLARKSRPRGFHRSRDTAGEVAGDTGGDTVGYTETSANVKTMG
- measurement.notes: Agonist activity at human recombinant motilin receptor expressed in CHO cells by FLIPR assay
- Assay type: functional, cell-based
quantity.name: EC50 (nM)
Numbers only, in nM.

The compound listed as `COc1cccc(CCN(Cc2ccccc2-c2ccc(CN3C[C@@H](C)N[C@@H](C)C3)cc2)C(=O)NC2CCCCC2)c1` shows EC50 equal to 10

====

- measurement.notes: Clearance in rat
- Type: ADME, organism-based
- reported.conditions: in vivo
quantity.name: clearance
Just so you know, I need the unit written after the number.

C[C@@H]1CN(Cc2ccc(-c3cccnc3C(=O)N3CCC(Nc4ccc(F)cc4)CC3)cc2)C[C@H](C)N1	53 mL/min/kg

Pending compound:
The compound listed as `C[C@@H]1CN(Cc2ccc(-n3ccnc3C(=O)N3CCC(Nc4cccc(F)c4)CC3)cc2)C[C@H](C)N1` shows clearance equal to 61 mL/min/kg

====

Heads up, these compounds all have IC50 values measured for Cytochrome P450 2D6 (Homo sapiens, UniProt P10635).
Give bare numbers, in µM.

C[C@@H]1CN(Cc2ccc(-n3ccnc3C(=O)N3CCC(Nc4cccc(F)c4)CC3)cc2)C[C@H](C)N1	29

Pending compound:
The compound listed as `C[C@@H]1CN(Cc2ccc(-c3cccnc3C(=O)N3CCC(Nc4ccc(F)cc4)CC3)cc2)C[C@H](C)N1` shows IC50 equal to 15

====

- measurement.notes: Distribution coefficient, log D at pH 7.4
- Type: physicochemical
- reported.conditions: octanol/water
Task for the reader: assign each of the following compounds its reported logD.
One number for each entry.

C[C@@H]1CN(Cc2ccc(-n3ccnc3C(=O)N3CCC(Nc4cccc(F)c4)CC3)cc2)C[C@H](C)N1	0.82

Pending compound:
The compound listed as `C[C@@H]1CN(Cc2ccc(-c3cccnc3C(=O)N3CCC(Nc4ccc(F)cc4)CC3)cc2)C[C@H](C)N1` shows logD equal to 0.72

====

- measurement.notes: Clearance in dog
- Format: ADME, organism-based, Canis lupus familiaris
- reported.conditions: in vivo
quantity.name: clearance (mL/min/kg)
Give bare numbers, in mL/min/kg.

The compound listed as `C[C@@H]1CN(Cc2ccc(-c3cccnc3C(=O)N3CCC(Nc4ccc(F)cc4)CC3)cc2)C[C@H](C)N1` shows clearance equal to 19

====

- system: Growth hormone secretagogue receptor type 1 (Homo sapiens, UniProt Q92847)
- Sequence (Q92847 whole entry): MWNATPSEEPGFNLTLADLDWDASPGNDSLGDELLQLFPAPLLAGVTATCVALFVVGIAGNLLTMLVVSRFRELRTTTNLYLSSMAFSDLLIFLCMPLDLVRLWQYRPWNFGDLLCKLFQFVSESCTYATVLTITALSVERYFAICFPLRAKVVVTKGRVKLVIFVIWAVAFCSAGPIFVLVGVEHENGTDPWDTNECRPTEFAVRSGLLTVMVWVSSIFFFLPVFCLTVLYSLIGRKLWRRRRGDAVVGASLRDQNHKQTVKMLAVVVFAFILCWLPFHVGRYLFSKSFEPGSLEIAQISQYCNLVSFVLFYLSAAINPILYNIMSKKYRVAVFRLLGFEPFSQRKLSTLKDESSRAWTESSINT
- measurement.notes: Inhibition of human Ghrelin receptor
quantity.name: pEC50
One number for each entry, as −log10 of the molar value.

C[C@@H]1CN(Cc2ccc(-n3ccnc3C(=O)N3CCC(Nc4cccc(F)c4)CC3)cc2)C[C@H](C)N1	6.30

Pending molecule:
Bench note, Growth hormone secretagogue receptor type 1 (Homo sapiens, UniProt Q92847): `C[C@@H]1CN(Cc2ccc(-c3cccnc3C(=O)N3CCC(Nc4ccc(F)cc4)CC3)cc2)C[C@H](C)N1` , pEC50 reads 7.00

====

- system: Cytochrome P450 3A4 (Homo sapiens, UniProt P08684)
- Sequence (P08684 whole entry): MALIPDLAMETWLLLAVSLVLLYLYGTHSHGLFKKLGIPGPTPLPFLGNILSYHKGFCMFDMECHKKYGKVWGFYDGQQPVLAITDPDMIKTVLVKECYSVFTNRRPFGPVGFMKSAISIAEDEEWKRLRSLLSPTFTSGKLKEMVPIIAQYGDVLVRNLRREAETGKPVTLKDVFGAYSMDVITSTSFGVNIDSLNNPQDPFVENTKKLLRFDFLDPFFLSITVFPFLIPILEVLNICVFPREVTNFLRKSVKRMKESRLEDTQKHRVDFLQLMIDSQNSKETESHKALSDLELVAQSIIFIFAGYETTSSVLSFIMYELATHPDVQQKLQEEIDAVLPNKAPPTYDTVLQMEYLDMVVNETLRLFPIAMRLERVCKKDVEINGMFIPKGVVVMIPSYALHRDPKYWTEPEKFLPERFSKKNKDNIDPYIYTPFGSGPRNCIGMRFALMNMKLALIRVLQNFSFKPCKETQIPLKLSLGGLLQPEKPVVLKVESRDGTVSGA
- measurement.notes: Inhibition of CYP3A4 using diethoxyfluorescein substrate
- Format: ADME
Task for the reader: assign each of the following compounds its reported log10(IC50).
Values are log10 of IC50 in µM.

C[C@@H]1CN(Cc2ccc(-c3cccnc3C(=O)N3CCC(Cc4ccc(F)cc4)CC3)cc2)C[C@H](C)N1	1.11
C[C@@H]1CN(Cc2ccc(-c3ccccc3C(=O)N3CCC(Nc4ccc(Cl)cc4)CC3)cc2)C[C@H](C)N1	0.72
CCN(CCc1ccccc1)C(=O)c1ccccc1-c1ccc(CN2C[C@@H](C)N[C@@H](C)C2)cc1	-0.05
C[C@@H]1CN(Cc2ccc(-c3ccccc3CN(C)C(=O)COc3ccccc3)cc2)C[C@H](C)N1	0.85

Pending compound:
The compound listed as `C[C@@H]1CN(Cc2ccc(-c3ccccc3CN(C)C(=O)CS(=O)(=O)c3ccccc3)cc2)C[C@H](C)N1` shows log10(IC50) equal to 0.48

====

- System: Liver microsomes
- measurement.notes: Intrinsic clearance in rat liver microsome
- Format: ADME
hey, just use Met if measured CL is less than 10 mL/min/g, otherwise Not met

[ask] Does `C[C@@H]1CN(Cc2ccc(-c3ccccc3C(=O)N3CCC(Cc4ccc(F)cc4)CC3)cc2)C[C@H](C)N1` have CL strictly under 10 mL/min/g?
[reply] Met

[ask] Does `C[C@@H]1CN(Cc2ccc(-c3cccnc3C(=O)N3CCC(Cc4ccc(F)cc4)CC3)cc2)C[C@H](C)N1` have CL strictly under 10 mL/min/g?
[reply] Not met

[ask] Does `C[C@@H]1CN(Cc2ccc(-c3cccnc3C(=O)N3CCC(Nc4ccc(F)c(F)c4)CC3)cc2)C[C@H](C)N1` have CL strictly under 10 mL/min/g?
[reply] Met

[ask] Does `C[C@@H]1CN(Cc2ccc(-c3cccnc3C(=O)N3CCC(Nc4cccc(F)c4)CC3)cc2)C[C@H](C)N1` have CL strictly under 10 mL/min/g?
[reply] Met

[ask] Does `C[C@@H]1CN(Cc2ccc(-c3ccccc3CN(C)C(=O)CS(=O)(=O)c3ccccc3)cc2)C[C@H](C)N1` have CL strictly under 10 mL/min/g?
[reply] Met

[ask] Does `C[C@@H]1CN(Cc2ccc(-c3ccccc3CN(C)C(=O)COc3ccccc3)cc2)C[C@H](C)N1` have CL strictly under 10 mL/min/g?
[reply] Met

[ask] Does `COc1cccc(CCN(Cc2ccccc2-c2ccc(CN3C[C@@H](C)N[C@@H](C)C3)cc2)C(=O)NC2CCCCC2)c1` have CL strictly under 10 mL/min/g?
[reply] Not met

[ask] Does `C[C@@H]1CN(Cc2ccc(-c3cccnc3C(=O)N3CCC(Nc4ccc(F)cc4)CC3)cc2)C[C@H](C)N1` have CL strictly under 10 mL/min/g?
[reply] Met

====

- System: Liver microsomes
- measurement.notes: Intrinsic clearance in rat liver microsome
- Assay type: ADME
Task for the reader: assign each of the following compounds its reported CL.
Numbers only, in mL/min/g.

C[C@@H]1CN(Cc2ccc(-c3cccnc3C(=O)N3CCC(Nc4cccc(C#N)c4)CC3)cc2)C[C@H](C)N1	4.6

List the reported CL of each compound below.
1. C[C@@H]1CN(Cc2ccc(-c3ccccc3C(=O)N3CCC(Nc4ccccc4)CC3)cc2)C[C@H](C)N1
2. C[C@@H]1CN(Cc2ccc(-c3ccccc3CN(C)C(=O)Cc3cccc(Cl)c3)cc2)C[C@H](C)N1
3. C[C@@H]1CN(Cc2ccc(-c3ccccc3C(=O)N3CCC(Nc4ccc(Cl)cc4)CC3)cc2)C[C@H](C)N1

[reply]
20
17
33

====

- measurement.notes: Oral bioavailability in rat
- Type: ADME, organism-based
- reported.conditions: in vivo
Task for the reader: assign each of the following compounds its reported bioavailability.
Numbers only, in %.

C[C@@H]1CN(Cc2ccc(-c3cccnc3C(=O)N3CCC(Nc4ccc(F)cc4)CC3)cc2)C[C@H](C)N1	13

Pending compound:
The compound listed as `C[C@@H]1CN(Cc2ccc(-n3ccnc3C(=O)N3CCC(Nc4cccc(F)c4)CC3)cc2)C[C@H](C)N1` shows bioavailability equal to 17

====

- system: UniProtKB P08684
- measurement.notes: Inhibition of CYP3A4 using phenyl-piperazinyl-methyl-benzyl-resofurin substrate
- Assay type: ADME
hey, just use 1 (yes) if measured IC50 is less than 9 µM, otherwise 0 (no)

See these solved cases before continuing.
C[C@@H]1CN(Cc2ccc(-n3ccnc3C(=O)N3CCC(Nc4cccc(F)c4)CC3)cc2)C[C@H](C)N1	0 (no)
C[C@@H]1CN(Cc2ccc(-c3cccnc3C(=O)N3CCC(Cc4ccc(F)cc4)CC3)cc2)C[C@H](C)N1	1 (yes)
COc1cccc(CCN(Cc2ccccc2-c2ccc(CN3C[C@@H](C)N[C@@H](C)C3)cc2)C(=O)NC2CCCCC2)c1	1 (yes)

[ask] Does `CCN(CCc1ccccc1)C(=O)c1ccccc1-c1ccc(CN2C[C@@H](C)N[C@@H](C)C2)cc1` have IC50 strictly under 9 µM?
[reply] 1 (yes)

[ask] Does `C[C@@H]1CN(Cc2ccc(-c3ccccc3C(=O)N3CCC(C(=O)c4ccc(F)cc4)CC3)cc2)C[C@H](C)N1` have IC50 strictly under 9 µM?
[reply] 1 (yes)

[ask] Does `C[C@@H]1CN(Cc2ccc(-c3ccccc3CN(C)C(=O)COc3ccccc3)cc2)C[C@H](C)N1` have IC50 strictly under 9 µM?
[reply] 0 (no)

[ask] Does `C[C@@H]1CN(Cc2ccc(-c3cccnc3C(=O)N3CCC(Nc4ccc(F)cc4)CC3)cc2)C[C@H](C)N1` have IC50 strictly under 9 µM?
[reply] 0 (no)

Values compiled from ChEMBL document CHEMBL1152208.
